B1: Hairpin Ribozyme (parent)
chain: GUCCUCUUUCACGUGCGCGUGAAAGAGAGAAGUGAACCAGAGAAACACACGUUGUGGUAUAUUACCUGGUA

Variants of: B1
Experiment: self-cleavage, relative activity (ratio to wild type); higher = more cleavage; co-transcriptional
Respond with condition met for self-cleavage values of 0.2 and above, condition not met for values below.

Q. Test whether the variant U9C A35C records self-cleavage of 0.2 or higher.
A. condition met

Q. Test whether the variant A43C G68C records self-cleavage of 0.2 or higher.
A. condition not met

Q. Test whether the variant A11C G34C records self-cleavage of 0.2 or higher.
A. condition met

Q. Test whether the variant G40U G54U records self-cleavage of 0.2 or higher.
A. condition not met

Q. Test whether the variant C10A A47C records self-cleavage of 0.2 or higher.
A. condition met

Q. Test whether the variant C18U A23G records self-cleavage of 0.2 or higher.
A. condition met

Q. Test whether the variant G17U G29A records self-cleavage of 0.2 or higher.
A. condition not met

Q. Test whether the variant A11U A35G records self-cleavage of 0.2 or higher.
A. condition met

Q. Test whether the variant A22U C46G records self-cleavage of 0.2 or higher.
A. condition not met

Q. Test whether the variant C3A A11U records self-cleavage of 0.2 or higher.
A. condition met

Q. Test whether the variant A11U U67G records self-cleavage of 0.2 or higher.
A. condition met
